Cited source: patent US20170122958A1

biological target: Brd2(1) (Homo sapiens); construct: Plasmids of the eight single BET bromodomain constructs Brd2(1), Brd2(2), Brd3(1), Brd3(2); His6 (N); made in house; host or cells: E. coli BL21(DE3); assay: DSF thermal shift; format: binding; details: wild type
Sequence (P25440 74-180 limits assumed): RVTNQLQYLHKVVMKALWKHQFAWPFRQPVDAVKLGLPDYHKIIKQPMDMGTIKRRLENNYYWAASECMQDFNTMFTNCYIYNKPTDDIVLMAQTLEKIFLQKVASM
measured.property: ΔTm Brd2(1) (K)
Number only, in K; omit the unit.

query: Provide measured ΔTm Brd2(1) value, entry: COC(=O)CC1N=C(c2cccc3[nH]ccc23)c2cc(OC)ccc2-n2c(C)nnc21 (stereo not drawn)
result: 6.8

query: Provide measured ΔTm Brd2(1) value, entry: COc1ccc(S(=O)(=O)Nc2ccc3c(c2)CN(C)C(=O)N3)cc1
result: 2.4

query: Provide measured ΔTm Brd2(1) value, entry: COc1ccccc1S(=O)(=O)Nc1ccc2c(c1)CN(C)C(=O)N2 [PFI-1, reference compound]
result: 4.5

***
query: Provide measured ΔTm Brd2(1) value, entry: COC(=O)[C@@H](C)[C@@H]1N=C(c2ccc(Cl)cc2)c2cc(OC)ccc2-n2c(C)nnc21 (racemic)
result: −0.3

query: Provide measured ΔTm Brd2(1) value, entry: COC(=O)[C@@H](CC1CC1)[C@@H]1N=C(c2ccc(Cl)cc2)c2cc(OC)ccc2-n2c(C)nnc21 (racemic)
result: −0.5

query: Provide measured ΔTm Brd2(1) value, entry: COc1ccc(OC)c(S(=O)(=O)Nc2ccc3c(c2)CN(C)C(=O)N3)c1
result: 1.1

----------
target: Brd2(1)*(Leu110-Ala) (Homo sapiens, UniProt P25440, L110A); assay: ITC reverse titration of protein into compound
Sequence (P25440 74-180 L110A limits assumed): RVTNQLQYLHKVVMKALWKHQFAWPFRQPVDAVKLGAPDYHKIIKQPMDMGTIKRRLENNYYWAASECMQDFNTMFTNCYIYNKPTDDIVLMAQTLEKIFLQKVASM
measured.property: Kd (nM)
Number only, in nM; omit the unit.

query: Provide measured Kd value, entry: CC[C@@H](C(=O)OC)[C@@H]1N=C(c2ccc(Cl)cc2)c2cc(OC)ccc2-n2c(C)nnc21 (racemic)
result: 42.7

***
query: Provide measured Kd value, entry: CCC[C@@H](C(=O)OC)[C@@H]1N=C(c2ccc(Cl)cc2)c2cc(OC)ccc2-n2c(C)nnc21 (racemic)
result: 400

query: Provide measured Kd value, entry: COC(=O)[C@H](C)[C@@H]1N=C(c2ccc(Cl)cc2)c2cc(OC)ccc2-n2c(C)nnc21 (racemic)
result: 17

query: Provide measured Kd value, entry: COC(=O)[C@H](CC1CC1)[C@@H]1N=C(c2ccc(Cl)cc2)c2cc(OC)ccc2-n2c(C)nnc21 (racemic)
result: 360

----------
target: Brd2(2)*(Met438-Ala) (Homo sapiens, UniProt P25440, M438A); construct: Plasmids of the eight single BET bromodomain constructs Brd2(1), Brd2(2), Brd3(1), Brd3(2); His6 (N); made in house; host or cells: E. coli BL21(DE3); assay: DSF thermal shift; type: binding; conditions: mutant
Sequence (P25440 344-453 M438A limits assumed): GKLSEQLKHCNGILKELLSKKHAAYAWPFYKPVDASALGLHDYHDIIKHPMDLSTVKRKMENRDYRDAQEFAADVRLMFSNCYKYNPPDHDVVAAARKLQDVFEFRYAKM
Listed below: ΔTm Brd2(2)*(Met165-Ala) values for each entry.
Number only, in K; omit the unit.

Consider the following illustrative entries.
query: Provide measured ΔTm Brd2(2)*(Met165-Ala) value, entry: COc1ccc(-c2ccc(S(=O)(=O)Nc3ccc4c(c3)CN(C)C(=O)N4)cc2)cc1
result: 4.1

query: Provide measured ΔTm Brd2(2)*(Met165-Ala) value, entry: COc1cc(C)ccc1S(=O)(=O)Nc1ccc2c(c1)CN(C)C(=O)N2
result: 2.0

query: Provide measured ΔTm Brd2(2)*(Met165-Ala) value, entry: CN1Cc2cc(NS(=O)(=O)c3ccc(-c4ccccc4)cc3)ccc2NC1=O
result: 0.0

query: Provide measured ΔTm Brd2(2)*(Met165-Ala) value, entry: COc1ccccc1S(=O)(=O)Nc1ccc2c(c1)CN(C)C(=O)N2 [PFI-1, reference compound]
result: 1.7

***
query: Provide measured ΔTm Brd2(2)*(Met165-Ala) value, entry: COc1ccc(S(=O)(=O)Nc2ccc3c(c2)CN(C)C(=O)N3)cc1
result: 1.6

query: Provide measured ΔTm Brd2(2)*(Met165-Ala) value, entry: CN1Cc2cc(NS(=O)(=O)c3ccc(C(C)(C)C)cc3)ccc2NC1=O
result: 2.5

query: Provide measured ΔTm Brd2(2)*(Met165-Ala) value, entry: Cc1cccc(S(=O)(=O)Nc2ccc3c(c2)CN(C)C(=O)N3)c1
result: 0.0

query: Provide measured ΔTm Brd2(2)*(Met165-Ala) value, entry: COc1ccc(OC)c(S(=O)(=O)Nc2ccc3c(c2)CN(C)C(=O)N3)c1
result: 6.6

query: Provide measured ΔTm Brd2(2)*(Met165-Ala) value, entry: Cc1cc(C)cc(S(=O)(=O)Nc2ccc3c(c2)CN(C)C(=O)N3)c1
result: 2.5

query: Provide measured ΔTm Brd2(2)*(Met165-Ala) value, entry: COc1ccc(S(=O)(=O)Nc2ccc3c(c2)CN(C)C(=O)N3)c(OC)c1
result: 2.3

----------
target: brd4(2)L387A (Homo sapiens, UniProt O60885, L387A); construct: Plasmids of the eight single BET bromodomain constructs Brd2(1), Brd2(2), Brd3(1), Brd3(2), Brd4(1), Brd4(2), Brdt(1) and Brdt(2); His6 (N); made in house; host or cells: E. coli BL21(DE3); assay: DSF thermal shift; format: binding; settings: mutant
Listed below: ΔTm Brd4(2)* (L387A) values for each entry.
Number only, in K; omit the unit.

query: Look up and report ΔTm Brd4(2)* (L387A), with brd4(2)L387A (Homo sapiens, UniProt O60885, L387A) as system, for CCC[C@H](C(=O)OC)[C@@H]1N=C(c2ccc(Cl)cc2)c2cc(OC)ccc2-n2c(C)nnc21 (racemic)
result: 1.6

query: Look up and report ΔTm Brd4(2)* (L387A), with brd4(2)L387A (Homo sapiens, UniProt O60885, L387A) as system, for CC[C@@H](C(=O)OC)[C@@H]1N=C(c2ccc(Cl)cc2)c2cc(OC)ccc2-n2c(C)nnc21 (racemic)
result: 7.0

----------
target: Brd2(2)*(Met438-Leu) (Homo sapiens, UniProt P25440, M438L); construct: Plasmids of the eight single BET bromodomain constructs Brd2(1), Brd2(2), Brd3(1), Brd3(2); His6 (N); made in house; host or cells: E. coli BL21(DE3); test: DSF thermal shift; type: binding; conditions: mutant
Sequence (P25440 344-453 M438L limits assumed): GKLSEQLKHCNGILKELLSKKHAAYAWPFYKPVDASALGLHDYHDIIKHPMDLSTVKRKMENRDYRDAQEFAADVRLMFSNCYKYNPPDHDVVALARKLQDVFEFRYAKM
measured.property: ΔTm Brd2(2)*(Met165-Leu) (K)
Number only, in K; omit the unit.

Consider the following illustrative entries.
query: Provide measured ΔTm Brd2(2)*(Met165-Leu) value, entry: Cc1cc(C)cc(S(=O)(=O)Nc2ccc3c(c2)CN(C)C(=O)N3)c1 [Compound 49]
result: 4.9

query: Provide measured ΔTm Brd2(2)*(Met165-Leu) value, entry: COc1ccc(-c2ccc(S(=O)(=O)Nc3ccc4c(c3)CN(C)C(=O)N4)cc2)cc1 [Compound 50]
result: 3.8

query: Provide measured ΔTm Brd2(2)*(Met165-Leu) value, entry: COc1ccc(S(=O)(=O)Nc2ccc3c(c2)CN(C)C(=O)N3)c(OC)c1 [Compound 54]
result: 2.4

***
query: Provide measured ΔTm Brd2(2)*(Met165-Leu) value, entry: COc1ccc(S(=O)(=O)Nc2ccc3c(c2)CN(C)C(=O)N3)cc1 [Compound 47]
result: 1.3

query: Provide measured ΔTm Brd2(2)*(Met165-Leu) value, entry: COc1ccccc1S(=O)(=O)Nc1ccc2c(c1)CN(C)C(=O)N2 [PFI-1, reference compound]
result: 2.1

query: Provide measured ΔTm Brd2(2)*(Met165-Leu) value, entry: Cc1cccc(S(=O)(=O)Nc2ccc3c(c2)CN(C)C(=O)N3)c1 [Compound 53]
result: 0.0

query: Provide measured ΔTm Brd2(2)*(Met165-Leu) value, entry: COc1cc(C)ccc1S(=O)(=O)Nc1ccc2c(c1)CN(C)C(=O)N2 [Compound 52]
result: 2.4

----------
target: Brd2(2)*(Leu383-Ala) (Homo sapiens, UniProt P25440, L383A); assay: DSF thermal shift; format: binding; set-up: Plasmids of the eight single BET bromodomain constructs Brd2(1), Brd2(2), Brd3(1), Brd3(2); His6 (N); made in house; host or cells: E. coli BL21(DE3); settings: mutant
Sequence (P25440 344-453 L383A limits assumed): as the sequence (P25440 344-453 M438A limits assumed) above, with L40A, A95M counted along it
Listed below: ΔTm Brd2(2)*(Leu383-Ala) values for each entry.

Consider the following illustrative entries.
query: Provide measured ΔTm Brd2(2)*(Leu383-Ala) value, entry: COC(=O)[C@@H](CC1CC1)[C@@H]1N=C(c2ccc(Cl)cc2)c2cc(OC)ccc2-n2c(C)nnc21 (racemic)
result: 2.3 ± 0.3 K

query: Provide measured ΔTm Brd2(2)*(Leu383-Ala) value, entry: COC(=O)CC1(C)N=C(c2ccc(Cl)cc2)c2cc(OC)ccc2-n2c(C)nnc21 (racemic)
result: 6.6 ± 0.4 K

query: Provide measured ΔTm Brd2(2)*(Leu383-Ala) value, entry: CCC[C@@H](C(=O)OC)[C@@H]1N=C(c2ccc(Cl)cc2)c2cc(OC)ccc2-n2c(C)nnc21 (racemic)
result: 5.0 ± 0.1 K

Next molecule, ΔTm Brd2(2)*(Leu383-Ala) to be filled in.
query: Provide measured ΔTm Brd2(2)*(Leu383-Ala) value, entry: COC(=O)[C@H](C)[C@@H]1N=C(c2ccc(Cl)cc2)c2cc(OC)ccc2-n2c(C)nnc21 (racemic)
result: 9.3 ± 0.2 K
